# protocolText: Cytotoxicity against mouse L5178Y cells assessed as growth inhibition after 96 hrs
# Type: cell-based
# assayConditions: read-out: ID50
This listing pairs compounds with measured GI50 at 96 h.

- compoundSmiles: "Nc1nc(=O)n([C@H]2C[C@H](O)[C@@H](CO)O2)cc1I"
  GI50 at 96 h: "> 100 µg/mL"
- compoundSmiles: "O=c1ccn([C@@H]2O[C@H](CO)[C@@H](O)[C@@H]2F)c(=O)[nH]1"
  GI50 at 96 h: "> 10 µg/mL"
- compoundSmiles: "Cc1cn([C@@H]2O[C@H](CO)[C@@H](O)[C@@H]2O)c(=O)[nH]c1=O"
  GI50 at 96 h: "> 100 µg/mL"
